Where a name gives a salt, the structure may show the parent alone.
attribute_measured: melting point

Summary for this compound, O=C(Nc1nc2ccc(Sc3cnc4ccc(-c5cccc(F)c5)cn34)cc2s1)C1CC1 [Example 9] : melting point is > 260 °C

Summary for this compound, O=C(Nc1nc2ccc(Sc3cnc4ccc(-c5cnn(C6CCNCC6)c5)cn34)cc2s1)C1CC1 (as salt: hydrochloride) [Example 12] : melting point is 230 °C

Summary for this compound, COCCNC(=O)Nc1nc2ccc(Sc3cnc4ccc(-c5ccc(F)cc5)cn34)cc2s1 [Example 5] : melting point is > 260 °C

Summary for this compound, Nc1nc2ccc(Sc3cnc4ccc(-c5ccc(F)cc5)cn34)cc2s1 [Example 2] : melting point is 258 °C

Summary for this compound, O=C(Nc1nc2ccc(Sc3cnc4ccc(-c5ccc(F)cc5)cn34)cc2s1)C1CC1 [Example 3] : melting point is 265 °C

Summary for this compound, Cc1ccc(-c2ccc3ncc(Sc4ccc5nc(NC(=O)C6CC6)sc5c4)n3c2)cc1F [Example 10] : melting point is > 260 °C

Summary for this compound, CC(C)(C)OC(=O)N1CCC(n2cc(-c3ccc4ncc(Sc5ccc6nc(NC(=O)C7CC7)sc6c5)n4c3)cn2)CC1 [Example 11] : melting point is 247 °C

Reference for the values: patent US20110257171A1
